- studySystem: CK1γ
- assay: in vitro kinase assay, CK1γ
- Type: biochemical
- condition: 10 µM inhibitor, initial screening
quantity: Kinase activity of CK1γ in presence of inhibitor

[
  {
    "compound": "COc1ccc(OC)c(-n2c(SCC(=O)Nc3nc4ccc(C(F)(F)F)cc4s3)nccc2=O)c1",
    "observedMeasurement": "not affected"
  },
  {
    "compound": "O=C(CSc1nccc(=O)n1Cc1ccccc1F)Nc1nc2ccc(C(F)(F)F)cc2s1",
    "observedMeasurement": "not affected"
  },
  {
    "compound": "COc1cc(OC)cc(-n2c(SCC(=O)Nc3nc4ccc(C(F)(F)F)cc4s3)nccc2=O)c1",
    "observedMeasurement": "not affected"
  }
]

---

# IC50 measurements, system: CK1δ wild type (GST-CK1δ) (Homo sapiens)
# Sequence (P48730 whole entry): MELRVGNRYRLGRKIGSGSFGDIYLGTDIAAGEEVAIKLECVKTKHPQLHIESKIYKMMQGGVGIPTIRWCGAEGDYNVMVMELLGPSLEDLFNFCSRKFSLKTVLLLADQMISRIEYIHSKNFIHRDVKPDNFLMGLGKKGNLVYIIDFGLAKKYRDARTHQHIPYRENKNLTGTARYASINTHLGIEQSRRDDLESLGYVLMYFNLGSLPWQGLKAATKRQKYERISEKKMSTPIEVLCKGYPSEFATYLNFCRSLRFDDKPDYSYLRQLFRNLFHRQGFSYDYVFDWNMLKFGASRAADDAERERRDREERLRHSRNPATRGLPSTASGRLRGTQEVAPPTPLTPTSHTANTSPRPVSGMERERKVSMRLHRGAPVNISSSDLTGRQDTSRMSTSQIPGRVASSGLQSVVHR
quantity: IC50 (µM)

A. O=C(CSc1nccc(=O)n1Cc1ccccc1F)Nc1nc2ccc(C(F)(F)F)cc2s1
B. O=C(CSc1nccc(=O)n1Cc1ccc(C(F)(F)F)cc1)Nc1nc2ccc(C(F)(F)F)cc2s1
C. COc1ccc(-n2c(SCC(=O)Nc3nc4ccc(C(F)(F)F)cc4s3)nccc2=O)c(OC)c1
Q) Using the list above, order everything by rising IC50. Please write the labels in the order that was asked for.
A) B, A, C
(B: 0.12 µM, A: 0.24 µM, C: 1.7 µM)
